Biological target: pooled human IgG
Below is a list of entries, each paired with its recorded Enzyme Activity Endpoint Assay (purified): scIgG value.
Field: numeric (ng/µL). Do not append units.

Some entries whose results are on file:
>  <Protein>
PRT-655 (protein) MQITSVWTKGVTPLTPEQFRYNNEDVIHAPYLAHQGWYDITKAFDGKDNLLCGAATAGNMLHWWFDQNKTEIEAYLSKHPEKQKIIFNNQELFDLKAAIDTKDSQTNSQLFNYFRDKAFPNLSARQLGVMPDLVLDMFINGYYLNVFKTQSTDVNRPYQDKDKRGGIFDAVFTRGDQTTLLTARHDLKNKGLNDISTIIKQELTEGRALALSHKTGNGGSSHVINLWGADFNAEGNLEAIYVTDSDANASIGMKKYFVGINAHGHVAISAKKIEGEDVGAQVLGLFTLSSGKDIWQKLSLEHHHHHH

>  <Test Result>
15

$$$$
>  <Protein>
PRT-61 (protein) MANQEIRYSEVTPYHVTSVWTKGVTPPANFTQGEDVFHAPYVANQGWYDINKTFNGKDDLLCGAATAGNMLHWWFDQNKEYIKRYLEEHPEKQKINFNGEQMFDVKEAIDTKNHQLDSKLFEYFKEKAFPYLSTKHLGVFPDHVLDMFINGYRLSLTNHGPTPVKEGSKDPRGGIFDAVFTRGDQSKLLTSRHDFKEKNLKEISDLIKKELTEGKALGLSHTYANVRINHVINLWGADFDSNGNLKAIYVTDSDSNASVGMKKYFVGVNSAGKVAISAKEIKEDNIGAQVLGLFTLSTGQDSWNQTN

>  <Test Result>
50

$$$$
>  <Protein>
PRT-65 (protein) MANQEIRYSEVTPYHVTSVWTKGVTPPANFTQGEDVFHAPYVANQGWYDITKTFNGKDDLLCGAATAGNMLHWWFDQNKDQIKRYLEEHPEKQKINFNGEQMFDVKEAIDTKNHQLDSKLFEYFKEKAFPYLSTKHLGVFPDLVIDMFINGYRLSLTNHGPTPVKEGSKDPRGGIFDAVFTRGDQSKLLTSRHDFKEKNLKEISDLIKKELTEGKALGLSHTYANVRINHVINLWGADFDSNGNLKAIYVTDSDSNASIGMKKYFVGVNSAGKVAISAKEIKEDNIGAQVLGLFTLSTGQDSWNQTN

>  <Test Result>
34

$$$$
>  <Protein>
PRT-132 (protein) MRNATEAYAKEVPKQITSVWTKGVTPPTPEQFRYNNEDVIHAPYLAHQGWYDITKAFDGKDNLLCGAATAGNMLHWWFDQNKTEIEAYLSKHPEKQKIIFNNQELFDLKAAIDTKDSQTNSQLFNYFRDKAFPNLSARQLGVMPDLVLDMFINGYYLNVFKTQSTDVNRPYQDKDKRGGIFDAVFTRGDQTTLLTARHDLKNKTLNDISTIIKQELTEGRALALSHTYANVSISHVINLWGADFNAEGNLEAIYVTDSDANASIGMKKYFVGINAHGHVAISAKKIEGENIGAQVLGLFTLSSGKDIWQKLS

>  <Test Result>
0

$$$$
>  <Protein>
PRT-615 (protein) MQITSVWTKGVTPLTPEQFRYNNEDVIHAPYLAHQGWYDITKAFDGKDNLLCGAATAGNMLHWWFDQNKTEIEAYLSKYPEKQKIIFNNQELFDLRAAINTKDSQTNSQLFNYFRDKAFPNLSARQLGVMPDLVLDMFINGYYLNVFKTQSTDVNRPYQDKDKRGGIFDAVFNRGDQTTLLTARHDLKNKGLNDISTIIKQELSSGRALALSHTYANVSISHVINLWGADFNAEGNLEAIYVTDSDANSNIGMKKYKVGINAHGHVAISAKKIEGENIGAQVLGLFTLSSGKDIWQKLSLEHHHHHH

>  <Test Result>
0

$$$$
>  <Protein>
PRT-123 (protein) MRNATEAYNKESPHTITSVWTKGVTPPTPEDFRYNNEDVLHAPYVANQGWYDITKTFDGKDNLLCGAATAGNMLHWWFDQNKEEIERYLKKHPEKQKIIFNNQELFDVKAAIDTKDSQTNSKLFNYFRDKAFPNLSARQLGVMPDLVLDMFINGYYLNLGKTQSTDVNRPYQDKDKRGGIFDAVFTRGDQTTLLTARHDLKNKGLNEISDLIKQELTEGKALALSHTYANVRINHVINLWGADFDAEGNLIAIYVTDSDANASIGMKKYFVGVNANGKVAISAKKIEGDNIGAQVLGLFTLSTGQDIWQKLS

>  <Test Result>
0

$$$$

Memo: PRT-141 (protein) MRNATEAYAKEVPHQITSVWTKGVTPLTPEQFRYNNEDVIHAPYLAHQGWYDITKAFDGKDNLLCGAATAGNMLHWWFDQNKTEIEAYLSKHPEKQKIIFNNQELFDLKAAIDTKDSQTNSQLFNYFRDKAFPNLSARQLGVMPDLVLDMFINGYYLNVFKTQSTDVNRPYQDKDKRGGIFDAVFTRGDQTTLLTARHDLKNKGLNDISTIIKQELTEGRALALSHTYANVSISHVINLWGADFNAEGNLEAIYVTDSDANASIGMKKYFVGINAAGHVAISAKKIEGENIGAQVLGLFTLSSGKDIWQKLS , reported Enzyme Activity Endpoint Assay (purified): scIgG: 0

Memo: PRT-57 (protein) MANQEIRYSEVTPYHVTSVWTKGVTPPANFTQGEDVFHAPYVANQGWYDINKTFNGKDDLLCGAATAGNMLHWWFDQNKDYIDRYLEEHPEKQKINFNGEQMFDVKEAIDTKNHQLDSKLFEYFKEKAFPYLSTKHLGVFPDLVIDMFINGYRLSLTNHGPTPVKEGSKDPRGGFFDAVFGRGDQSKLLTSRHDFKEKNLKEISDLIKKELTEGKALGLSHTYANVRINHVINLWGADFDSNGNLKAIYVTDSDSNASIGMKKYFVGVNSAGKVAISAKEIKEDNIGAQVLGLFTLSTGQDSWNQTN , reported Enzyme Activity Endpoint Assay (purified): scIgG: 55
